These records show log10 of Ki for UniProtKB P14842.
Sequence (P14842 whole entry): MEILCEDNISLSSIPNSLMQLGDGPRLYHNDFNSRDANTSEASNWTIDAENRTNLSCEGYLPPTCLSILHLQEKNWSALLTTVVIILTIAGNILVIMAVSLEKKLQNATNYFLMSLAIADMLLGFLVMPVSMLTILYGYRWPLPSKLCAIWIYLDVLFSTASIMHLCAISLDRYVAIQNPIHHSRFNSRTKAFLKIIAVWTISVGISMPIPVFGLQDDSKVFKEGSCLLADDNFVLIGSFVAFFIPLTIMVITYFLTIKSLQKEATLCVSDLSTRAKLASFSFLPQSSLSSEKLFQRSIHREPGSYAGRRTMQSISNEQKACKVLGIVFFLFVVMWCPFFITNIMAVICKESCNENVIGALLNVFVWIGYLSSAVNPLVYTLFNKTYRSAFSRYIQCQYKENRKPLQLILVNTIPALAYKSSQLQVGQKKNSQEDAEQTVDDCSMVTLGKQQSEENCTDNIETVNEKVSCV
ASSAY READOUT: log10 of Ki (log10 of the value in nM)

>>> df
                                   molecule  measurement
0  CCCC(F)c1cc(N2CCN(C)CC2)cc(-c2ccccc2Cl)c1Cl (centres unmarked) [Example 178]         1.09
1  CCS(=O)(=O)c1cc(N2CCN(Cc3ccccn3)CC2)cc(-c2ccc(F)cc2)c1OC [Example 199]         1.80
2  CCC(F)c1cc(N2CCN(CC)CC2)cc(-c2ccccc2OC)c1Cl (centres unmarked) [Example 143]         2.19
3  CCc1cc(N2CCN(CC)CC2)cc(-c2ccccc2)c1OC [Example 70]         2.11
4  CCC(F)c1cc(N2CCN(CC)CC2)cc(-c2ccc(F)cc2F)c1Cl (centres unmarked) [Example 144]         1.20
5  CCN1CCN(c2cc(-c3ccccc3)c(OC)c(C(O)c3ccccn3)c2)CC1 (centres unmarked) [Example 112]         0.85
6  CCC(F)c1cc(N2CCN(CC)CC2)cc(-c2ccccc2COC)c1Cl (centres unmarked) [Example 145]         1.86
7  CCN1CCN(c2cc(C(=O)Cc3ccncc3)c(OC)c(-c3ccccc3)c2)CC1 [Example 103]         0.82

###

Ki: recorded values
# TARGET OR SYSTEM: adrenergic α1 receptor
# TEST: adrenergic α1 receptor binding test ([3H] Prazosin Binding Test)
# Set-up: species or system SD rats
# MEASUREMENT SETUP: 1 nM [3H] Prazosin, rat cortex, room temperature, 60 minutes
ASSAY READOUT: Ki

>>> print(df.to_string())
                                   molecule  measurement
0  CCN1CCN(c2ccc(O)c(-c3ccccc3)c2)CC1 [Example 62]    > 1000 nM
1  CCN1CCN(c2cc(-c3ccccc3)c(OC)c(C(F)Cc3ccccn3)c2)CC1 (stereo not drawn) [Example 99]    > 1000 nM
2  CCCC(F)c1cc(N2CCN(C)CC2)cc(-c2ccccc2C)c1Cl (stereo not drawn) [Example 53]    > 1000 nM

###

# TARGET OR SYSTEM: dopamine D2 receptor (Rattus norvegicus, UniProt P61169)
# Construct: the receptor fraction prepared from the corpus striatum was molten and suspended; from tissue; host or cells: corpus striatum of SD rats (membrane fraction)
# Sequence (P61169 whole entry): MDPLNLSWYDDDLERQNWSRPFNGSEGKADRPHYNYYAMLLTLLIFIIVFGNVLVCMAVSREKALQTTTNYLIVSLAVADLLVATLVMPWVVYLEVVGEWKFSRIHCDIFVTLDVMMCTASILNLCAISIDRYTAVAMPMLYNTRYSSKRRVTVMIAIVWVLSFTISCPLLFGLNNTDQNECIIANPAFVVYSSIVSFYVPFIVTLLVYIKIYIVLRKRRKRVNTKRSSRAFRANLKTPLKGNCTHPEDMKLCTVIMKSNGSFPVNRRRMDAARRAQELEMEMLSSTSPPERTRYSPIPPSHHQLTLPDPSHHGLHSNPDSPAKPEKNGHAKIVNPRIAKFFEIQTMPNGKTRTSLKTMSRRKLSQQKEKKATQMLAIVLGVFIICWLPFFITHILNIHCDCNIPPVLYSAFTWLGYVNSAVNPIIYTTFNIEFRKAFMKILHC
# TEST: dopamine D2 receptor binding test ([3H] Spiperone Binding Test)
# Set-up: species or system SD rats
# MEASUREMENT SETUP: 1 nM [3H] Spiperone, rat corpus striatum, room temperature, 60 minutes; read-out: Ki value, dopamine D2 receptor
The label is 1.0 for Ki below 2 nM and 0.0 for Ki equal to or exceeding 2 nM.

>>> df
                                    molecule  assigned_class
 0  CCS(=O)(=O)Nc1cc(N2CCN(C)CC2)cc(-c2ccccc2C)c1Cl [Example 28]             1.0
 1  CCN1CCN(c2cc(NS(=O)(=O)c3ccccc3)c(OC)c(-c3ccccc3)c2)CC1 [Example 120]             1.0
 2  COc1c(C(=O)Cc2ccccc2)cc(N2CCN(Cc3ccccc3)CC2)cc1-c1ccccc1 [Example 126]             0.0
 3  CCN1CCN(c2cc(C(=O)c3ccccn3)c(OC)c(-c3ccccc3)c2)CC1 [Example 109]             0.0
 4  CCCS(=O)(=O)c1cc(N2CCN(CC)CC2)cc(-c2ccccc2C)c1Cl [Example 159]             0.0
 5  CCN1CCN(c2cc(CCCF)c(OC)c(-c3ccccc3)c2)CC1 [Example 77]             0.0
 6  CCN1CCN(c2cc(-c3ccccc3)c(OC)c(S(=O)(=O)CCC#N)c2)CC1 [Example 183]             0.0
 7  CCCS(=O)(=O)Nc1cc(N2CCN(C)CC2)cc(-c2ccccc2Cl)c1Cl [Example 35]             1.0
 8  CCN1CCN(c2cc(-c3ccccc3C)c(Cl)c(C(F)F)c2)CC1 [Example 185]             1.0
 9  CCc1ccccc1-c1cc(N2CCN(CC)CC2)cc(C(F)CC)c1Cl (centres unmarked) [Example 217]             0.0
10  CCCCOC(CC)c1cc(N2CCN(CC)CC2)cc(-c2ccccc2)c1OC (centres unmarked) [Example 81]             0.0
11  CCC(F)c1cc(N2CCN(CC)CC2)cc(-c2ccccc2C)c1C#N (centres unmarked) [Example 164]             1.0
12  CCN1CCN(c2cc(C(Cc3ccc(F)cc3)=NO)c(OC)c(-c3ccccc3)c2)CC1 [Example 98]             0.0
13  CCC(F)c1cc(N2CCN(CC)CC2)cc(-c2ccccc2COC)c1Cl (centres unmarked) [Example 145]             0.0
14  CCN1CCN(c2cc(-c3ccccc3)c(OC)c(-c3ccccn3)c2)CC1 [Example 97]             0.0
15  CCN1CCN(c2cc(-c3ccccc3C)c(Cl)c(C(F)CC(C)C)c2)CC1 (centres unmarked) [Example 51]             0.0
16  CCCc1cc(N2CCN(CC)CC2)cc(-c2ccccc2)c1OC [Example 59]             0.0
17  CCS(=O)(=O)Nc1cc(N2CCN(C)CC2)cc(-c2ccccc2Cl)c1Cl [Example 34]             1.0
18  CCN1CCN(c2cc(-c3ccccc3C)c(F)c(S(C)(=O)=O)c2)CC1 [Example 155]             0.0
19  CC[C@@H](F)c1cc(N2CCN(C)CC2)cc(-c2ccccc2C)c1Cl [Example 220]             1.0
20  CCC(F)c1cc(N2CCN(CCO)CC2)cc(-c2ccccc2C#N)c1Cl (single isomer, unassigned) [Example 13]             0.0
21  CCN1CCN(c2cc(-c3ccccc3C)c(Cl)c(C(C)F)c2)CC1 (centres unmarked) [Example 52]             1.0
22  CCC(OCc1ccccn1)c1cc(N2CCN(CC)CC2)cc(-c2ccccc2)c1OC (centres unmarked) [Example 115]             0.0
23  CCC(F)c1cc(N2CCN(CC)CC2)cc(-c2ccccc2)c1OC (centres unmarked) [Example 88]             0.0
24  CCCS(=O)(=O)Nc1cc(N2CCN(CC)CC2)cc(-c2ccc(Cl)cc2Cl)c1Cl [Example 189]             1.0
25  CCN1CCN(c2cc(-c3ccccc3)c(OC)c(S(=O)(=O)CC)c2)CC1 [Example 133]             0.0
26  CCN1CCN(c2cc(NS(=O)(=O)CC(F)(F)F)c(Cl)c(-c3ccccc3C)c2)CC1 [Example 136]             0.0
27  CCCC(O)c1cc(N2CCN(C)CC2)cc(-c2ccccc2C)c1Cl (centres unmarked) [Example 174]             0.0
28  CCS(=O)(=O)c1cc(N2CCN(CCO)CC2)cc(-c2ccc(F)cc2)c1OC [Example 195]             0.0

meta.source: patent US6281214A
